Binding amount (RU) by entry:
# targetOrSystem: T1, human FSTL1 (construct not stated) (human, UniProt Q12841 21-308)
# T1 construct: also called human FSTL1 antigen; FSTL1 (R&D Systems, Inc. Cat#1694-FN-050)
# T1 sequence: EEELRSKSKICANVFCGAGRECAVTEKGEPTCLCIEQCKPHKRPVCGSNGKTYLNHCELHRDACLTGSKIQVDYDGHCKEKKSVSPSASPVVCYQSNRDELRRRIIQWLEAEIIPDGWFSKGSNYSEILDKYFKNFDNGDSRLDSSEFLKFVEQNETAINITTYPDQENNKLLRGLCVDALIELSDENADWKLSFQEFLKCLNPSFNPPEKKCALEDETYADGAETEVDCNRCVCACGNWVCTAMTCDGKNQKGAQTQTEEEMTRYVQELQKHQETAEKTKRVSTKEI
# experimentSummary: SPR (Biacore T-200), captured antibody, human FSTL1 10 µg/ml
measurementLabel: Binding amount (RU)

binder="anti-FSTL1 antibody clone #5-10 (chicken-mouse chimeric antibody) (antibody, mouse IgG1, V domains shown) VH: AVTLDESGGGLQTPGGGLSLVCKGSGFTLSSFNMFWVRQAPGKGLEWVAGVGKDGGTTYGAAVDGRATISRDSGQSTVRLQLNDLRAEDTGTYFCAKAAGGCSYSWCGAYVGDLDAWGHGTEVIVSS VL: ASTQPSSVSANPGETVKITCSGGGSYVGSYYYGWYQQKSPGSAPVTVIYNNNQRPSDIPSRFSGSKSGSTATLTITGVQAEDEAVYFCGGYDSSAGGIFGAGTTLTVLG" observedmeasurement=9.8
binder="anti-FSTL1 antibody clone #8-7 (chicken-mouse chimeric antibody) (antibody, mouse IgG1, kappa, V domains shown) VH: AVTLDESGGGLQTPGGGLSLVCKGSGFTFSSFNMFWVRQAPGKGLEWVAGIGKDGVPKYGAAVDGRATISKDNGQSTLRLQLNNLRAEDTGTYFCAKAAGGCSYDWCGIYAGDIDTWGHGTEVIVSS VL: ASTQPSSVSANPGEAVKITCSGGSGSYYGWYQQKSPGSAPVTVIYNNNQRPSDIPSRFSGSKSGSTATLTITGVQAEDEAVYFCGGYDSSTGHGGIFGAGTTLTVLG" observedmeasurement=12.8
binder="anti-FSTL1 antibody clone #5-43 (chicken-mouse chimeric antibody) (antibody, mouse IgG1, kappa, V domains shown) VH: AVTLDESGGGLQTPGGGLSLVCKGSGFTFSSFNMFWVRQAPGKGLEWVAGIGKDGGTGYGAAVDGRATISKDSGQSTLRLQLNNLRAEDTGTYYCAKAAGGCSYDWCGAYTGDIDTWGHGTEVIVSS VL: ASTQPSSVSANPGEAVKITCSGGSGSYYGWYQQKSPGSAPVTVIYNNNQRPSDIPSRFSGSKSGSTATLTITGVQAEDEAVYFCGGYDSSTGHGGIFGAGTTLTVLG" observedmeasurement=7

Data provenance is patent US20180021429A1.
